experimental.system: human γδ TCR (Vγ9Vδ2) on human Vδ2+ γδ T cells (human) (UniProt A0JD36)
assay.notes: flow cytometry on expanded human Vδ2+ γδ T cells, nonlinear fit
Reported Kd by item:

binder	Kd / nM
1D7v124 VHH-hIgG1 Fc-NNT (monomeric) (VHH) VHH: EVQLLESGGGEVQPGGSLRLSCVASRGKISQYRMGWYRQAPGKERELVAHISNTGDAAEYVDGVKDRFTISRDSTKNALYLQMSSLRAEDTAVYKCNSVEDILAWGQGTLVTVRP	72.2
hu1D7v14 VHH-hIgG1 Fc-NNT (monomeric) (VHH) VHH: EVQLLESGGGEVQPGGSLRLSCVASRGKISQYRMGWYRQAPGKGLEWVAHISNTGGAAEYVDSVKGRFTISRDSTKNAVYLQMSSLRAEDTAVYKCNSVEDILAWGQGTLVTVKP	21.5
hu1D7v3 VHH-hIgG1 Fc-NNT (monomeric) (VHH) VHH: EVQLLESGGGEVQPGGSLRLSCVASGGKISQYRMGWYRQAPGKGLEWVAHISNTGDAAEYVDSVKGRFTISRDSTKNAVYLQMSSLRAEDTAVYKCNSVEDILAWGQGTLVTVKP	51.1
hu1D7v84 VHH-hIgG1 Fc-NNT (monomeric) (VHH) VHH: EVQLLESGGGEVQPGGSLRLSCVASRGKISQYRMGWYRQAPGKERELVAHISNTGDAAEYVEGVKDRFTISRDSTKNALYLQMSSLRAEDTAVYKCNSVEDILAWGQGTLVTVRP	43.6

# credit: patent US20250109203A1
